- target desc: Cannabinoid receptor 1 (Homo sapiens, UniProt P21554)
- Sequence (P21554 whole entry): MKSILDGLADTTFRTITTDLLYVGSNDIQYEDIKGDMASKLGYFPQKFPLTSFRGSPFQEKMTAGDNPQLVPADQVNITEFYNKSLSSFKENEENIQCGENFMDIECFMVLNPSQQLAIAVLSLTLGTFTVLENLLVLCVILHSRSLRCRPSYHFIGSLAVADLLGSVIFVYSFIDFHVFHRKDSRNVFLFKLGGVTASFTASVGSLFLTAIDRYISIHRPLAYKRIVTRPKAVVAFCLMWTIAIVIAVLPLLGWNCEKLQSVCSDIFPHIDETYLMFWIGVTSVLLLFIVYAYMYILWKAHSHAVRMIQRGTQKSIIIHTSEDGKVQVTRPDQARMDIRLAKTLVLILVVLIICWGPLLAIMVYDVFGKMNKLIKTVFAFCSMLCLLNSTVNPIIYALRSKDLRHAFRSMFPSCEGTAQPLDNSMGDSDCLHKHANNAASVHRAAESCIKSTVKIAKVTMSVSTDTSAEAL
// classify: if (Ki < 0.6 µM) label 1 else label 0

See these solved cases before continuing.
CCCCC/C=C\C/C=C\C/C=C\C/C=C\CCCC(=O)NCCCl ... label 1
O=c1c2cn(Cc3ccccc3)c3ccccc3c-2nn1C1CCCCC1 ... label 0
COc1ccc2c(=O)c(C(=O)NC3CCCCC3)cn(CCN3CCOCC3)c2c1 ... label 0
O=c1c2cn(CCN3CCOCC3)c3ccccc3c-2nn1-c1ccccc1 ... label 0
Nc1ccc2c(=O)cc(C(=O)NC3CCCCC3)n(Cc3ccccc3)c2n1 ... label 0

Shift focus to the following entry.
Hello, is Ki of the following molecule strictly smaller than 0.6 µM? CCCCCCC(C)(C)c1cc(O)c2c(c1)OC(C)(C)[C@@H]1CC=C(CO)C[C@@H]21
label 1

###

- target desc: Cannabinoid receptor 2 (Homo sapiens)
- protocol details: Displacement of [3H]CP-55940 from human recombinant CB2 receptor expressed in HEK293 cells
endpoint: pKi
// pKi is dimensionless: -log10 of concentration (M)

COc1ccc2c(=O)c(C(=O)NC3CCCCC3)cn(Cc3ccccc3)c2n1 ... 7.96
O=c1c2cn(Cc3ccccc3)c3ccccc3c-2nn1C1CCCCC1 ... 6.10
COc1ccc(C(=O)c2c(C)n(CCN3CCOCC3)c3cc(I)ccc23)cc1 ... 7.44

Return the recorded pKi value; entry: CCCCC/C=C\C/C=C\C/C=C\C/C=C\CCCC(=O)NCCCl
7.02

Return the recorded pKi value; entry: O=C(NC1CCCCCC1)c1cn(Cc2ccccc2)c2ccccc2c1=O
8.19

Return the recorded pKi value; entry: Nc1ccc2c(=O)cc(C(=O)NC3CCCCC3)n(Cc3ccccc3)c2n1
5.10

###

- target desc: Cannabinoid receptor 2 (Homo sapiens, UniProt P34972)
- Sequence (P34972 whole entry): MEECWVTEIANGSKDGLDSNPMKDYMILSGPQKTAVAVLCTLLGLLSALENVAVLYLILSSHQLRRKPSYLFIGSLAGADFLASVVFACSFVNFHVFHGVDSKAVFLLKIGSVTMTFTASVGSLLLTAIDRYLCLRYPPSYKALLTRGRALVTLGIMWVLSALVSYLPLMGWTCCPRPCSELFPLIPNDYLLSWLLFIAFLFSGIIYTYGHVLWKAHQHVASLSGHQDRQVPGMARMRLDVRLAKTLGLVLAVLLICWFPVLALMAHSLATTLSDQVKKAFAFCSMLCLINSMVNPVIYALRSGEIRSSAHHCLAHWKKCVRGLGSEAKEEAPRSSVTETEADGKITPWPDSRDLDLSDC
- protocol details: Displacement of [3H]CP-55940 from human recombinant CB2 receptor expressed in HEK293 cells
endpoint: pKi
// pKi is dimensionless: -log10 of concentration (M)

COc1ccc2c(=O)c(C(=O)NC3CCCCC3)cn(CCN3CCOCC3)c2c1 ... 7.10

Send back Cannabinoid receptor 2 (Homo sapiens, UniProt P34972) pKi of O=c1c2cn(CCN3CCOCC3)c3ccccc3c-2nn1-c1ccccc1 only.
5.64

###

- Organism: Homo sapiens
- protocol details: Selectivity for human CB2 over human CB1
Note to self: values exactly at 10 are yes. So Ratio Ki at or above 10 is yes, below is no.

O=c1c2cn(Cc3ccccc3)c3ccccc3c-2nn1C1CCCCC1 ... no

Determine whether this compound has Ratio Ki no lower than 10: O=c1c2cn(Cc3ccccc3)c3cc(Cl)ccc3c-2nn1C1CCCCC1
no

Determine whether this compound has Ratio Ki no lower than 10: COc1ccc2c(=O)c(C(=O)NC3CCCCC3)cn(CCN3CCOCC3)c2c1
yes

Determine whether this compound has Ratio Ki no lower than 10: CCCCC/C=C\C/C=C\C/C=C\C/C=C\CCCC(=O)NCCCl
no

Determine whether this compound has Ratio Ki no lower than 10: COc1ccc2c(=O)c(C(=O)NC3CCCCC3)cn(Cc3ccccc3)c2n1
yes

Determine whether this compound has Ratio Ki no lower than 10: Nc1ccc2c(=O)cc(C(=O)NC3CCCCC3)n(Cc3ccccc3)c2n1
no

Determine whether this compound has Ratio Ki no lower than 10: O=C(NC1CCCCCC1)c1cn(Cc2ccccc2)c2ccccc2c1=O
no

Determine whether this compound has Ratio Ki no lower than 10: O=c1c2cn(CCN3CCOCC3)c3ccccc3c-2nn1-c1ccccc1
no

Determine whether this compound has Ratio Ki no lower than 10: O=C(NC1CCCCCC1)c1cn(CCN2CCOCC2)c2ccccc2c1=O
yes

###

The reader will find pKi measurements below, all made with Cannabinoid receptor 1 (Homo sapiens, UniProt P21554).
// pKi is dimensionless: -log10 of concentration (M)

O=C(NC1CCCCCC1)c1cn(Cc2ccccc2)c2ccccc2c1=O ... 7.77
O=c1c2cn(Cc3ccccc3)c3cc(Cl)ccc3c-2nn1C1CCCCC1 ... 6.25
COc1ccc2c(=O)c(C(=O)NC3CCCCC3)cn(Cc3ccccc3)c2n1 ... 6.25

Send back Cannabinoid receptor 1 (Homo sapiens, UniProt P21554) pKi of O=C(NC1CCCCCC1)c1cn(CCN2CCOCC2)c2ccccc2c1=O only.
6.54

###

- target desc: Cannabinoid receptor 2 (Homo sapiens)
- protocol details: Displacement of [3H]CP-55940 from human recombinant CB2 receptor expressed in HEK293 cells
In this section, each of the compounds is paired with its reported pKi.
// pKi is dimensionless: -log10 of concentration (M)

O=c1c2cn(Cc3ccccc3)c3cc(Cl)ccc3c-2nn1C1CCCCC1 ... 5.79

Return the recorded pKi value; entry: COc1ccc2c(=O)c(C(=O)NC3CCCCC3)cn(Cc3ccccc3)c2c1
7.10

Return the recorded pKi value; entry: O=C(NC1CCCCCC1)c1cn(CCN2CCOCC2)c2ccccc2c1=O
7.55

Return the recorded pKi value; entry: CN(C)c1ccc2c(=O)c(C(=O)NC3CCCCC3)cn(CCN3CCOCC3)c2n1
7.03
